- TEST_SYSTEM: VEGFR2 (Homo sapiens)
- Sequence (P35968 786-1356 limits assumed): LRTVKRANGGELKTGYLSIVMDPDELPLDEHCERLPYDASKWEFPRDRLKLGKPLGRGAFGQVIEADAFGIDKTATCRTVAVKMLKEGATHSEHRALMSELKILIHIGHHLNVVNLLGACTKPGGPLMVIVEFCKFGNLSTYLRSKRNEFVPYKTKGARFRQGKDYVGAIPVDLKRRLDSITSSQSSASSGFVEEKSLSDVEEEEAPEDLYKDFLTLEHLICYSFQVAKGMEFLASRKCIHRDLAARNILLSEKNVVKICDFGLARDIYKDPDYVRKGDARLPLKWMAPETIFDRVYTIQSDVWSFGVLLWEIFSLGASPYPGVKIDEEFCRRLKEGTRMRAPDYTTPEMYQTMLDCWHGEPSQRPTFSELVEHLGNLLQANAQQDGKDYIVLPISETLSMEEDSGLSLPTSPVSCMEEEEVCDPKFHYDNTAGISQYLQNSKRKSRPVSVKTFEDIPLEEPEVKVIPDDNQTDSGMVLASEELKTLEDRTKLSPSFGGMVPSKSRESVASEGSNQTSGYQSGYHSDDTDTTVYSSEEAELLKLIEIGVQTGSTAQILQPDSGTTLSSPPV
Known IC50 of a selection of compounds
VALUE_TYPE: IC50 (nM)

INSERT INTO measurements (smiles_entry, value_observed) VALUES
  ('COc1cc2nccc(Oc3ccc(NC(=O)Nc4ccc(F)cc4)cc3)c2cc1NS(C)(=O)=O', 5.4),
  ('O=C(Nc1ccc(Oc2ncnc3[nH]c(-c4ccc(OC[C@H](O)CN5CCCC5)cc4)cc23)cc1Cl)NC1CC1', 25),
  ('O=C(Nc1ccc(Oc2ncnc3[nH]c(-c4ccccc4)cc23)cc1)NC1CC1', 356);

----------
- System: Human Umbilical Vein Endothelial Cells (HUVECs)
- ASSAY_SUMMARY: Inhibition against sandwich tube formation by vascular endothelial cells in response to stimulation by VEGF
- Format: cell-based
- TEST_CONDITIONS: HUVEC in collagen gel sandwich, stimulation by VEGF (25 ng/ml VEGF and 10 ng/ml EGF), 4th day, total tube length, read-out: IC50 (concentration required for 50% inhibition of tube formation)
VALUE_TYPE: IC50 (nM)

INSERT INTO results (compound, value_type, value_observed) VALUES
  ('NC(=O)c1cc2c(Oc3ccc(NC(=O)NC4CC4)c(F)c3)ccnc2cc1OCCCN1CCOCC1 [Example 374]', 'IC50', 3),
  ('CCNC(=O)n1ccc2cc(Oc3ccnc4cc(OC)c(C(=O)NCCF)cc34)ccc21 [Example 518]', 'IC50', 1.3),
  ('O=C(Nc1ccc(Oc2ncnc3[nH]c(-c4ccc(OCCCN5CCCC5)cc4)cc23)cc1Cl)NC1CC1 [Example 155]', 'IC50', 1.4),
  ('N#Cc1cc2c(Oc3ccc(NC(=O)Nc4nccs4)c(F)c3)ccnc2cc1OCC1CCNCC1 [Example 503]', 'IC50', 6.4),
  ('COc1cc2nccc(Oc3ccc(NC(=O)NC4CC4)c(Cl)c3)c2cc1C(=O)Nc1ncc[nH]1 [Example 405]', 'IC50', 28),
  ('CCN(CC)C[C@@H](O)COc1cc2nccc(Oc3ccc(NC(=O)Nc4ccc(F)cc4)cc3)c2cc1C#N [Example 455]', 'IC50', 7.8),
  ('CCNC(=O)n1ccc2cc(Oc3ccnc4cc(OCC5CCN(C)CC5)c(C#N)cc34)ccc21 [Example 304]', 'IC50', 0.3),
  ('N#Cc1cc2c(Oc3ccc4c(ccn4C(=O)Nc4nccs4)c3)ccnc2cc1OCCCN1CCCC1 [Example 289]', 'IC50', 4.6),
  ('COCCOc1cc2nccc(Oc3ccc(NC(=O)Nc4ccccc4)cc3)c2cc1C#N [Example 65]', 'IC50', 5.9),
  ('CNC(=O)c1cc2c(Oc3ccc(NC(=O)NC4CC4)c(Cl)c3)ccnc2cc1OC [Example 442]', 'IC50', 7.2),
  ('COc1cc2nccc(Oc3ccc(NC(=O)NC4CC4)c(C)c3C)c2cc1C(N)=O [Example 490]', 'IC50', 26),
  ('COCCNC(=O)c1cc2c(Oc3ccc(N(C)C(=O)Nc4ccc(F)cc4)cc3)ccnc2cc1OC [Example 436]', 'IC50', 22),
  ('COc1ccc(NC(=O)Nc2ccc(Oc3ccnc4cc(OCCOCCO)c(C#N)cc34)cc2)cc1 [Example 72]', 'IC50', 22),
  ('O=C(Nc1ccc(Oc2ncnc3[nH]c(-c4ccc(OC[C@H](O)CN5CCCC5)cc4)cc23)cc1Cl)NC1CC1 [Example 159]', 'IC50', 0.6),
  ('COc1cc2nccc(Oc3ccc(NC(=O)NC4CC4)cc3)c2cc1C(N)=O [Example 121]', 'IC50', 42),
  ('CS(=O)(=O)CCOc1cc2nccc(Oc3ccc(NC(=O)Nc4ccc(F)cc4)cc3)c2cc1C#N [Example 59]', 'IC50', 170),
  ('COc1cc2nccc(Oc3ccc(NC(=O)NC4CC4)c(Cl)c3)c2cc1C(=O)NCC1CC1 [Example 446]', 'IC50', 4),
  ('O=C(Nc1cc(Oc2ccc3c(ccn3C(=O)Nc3ccccc3)c2)ccn1)C1CCN(CC2CC2)CC1 [Example 198]', 'IC50', 1.5),
  ('COc1cc2nccc(Oc3ccc4c(ccn4C(=O)NCCF)c3)c2cc1C(N)=O [Example 314]', 'IC50', 4.2),
  ('CN1CCC(C(=O)Nc2cc(Oc3ccc(NC(=O)Nc4ccc(F)cc4)c(Cl)c3)ccn2)CC1 [Example 202]', 'IC50', 15);

Reference source: patent US7253286B2
